Assay: inhibitors of E-selectin induction by TNFa, primary screen, imaging, HUVEC, immunofluorescence, MLSMR starter and 10KST1 sets (AID 487);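 also: signal is fraction of cell area covered by stained E-selectin grains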
Settings: HUVEC TNFalpha-induced E-selectin immunofluorescence imaging, at 2 µM; stronger effect = higher value
Kindly state inhibition for each of the entries shown.
Answers are plain numbers, in %.

Would you please look over these solved cases?
[[record]]
compound = "O=C1OCc2cc(NC(=O)C3CCCO3)ccc21 (stereo unspecified)"
measured = -31.8

[[record]]
compound = "COc1cccc(CNC(=O)C2CCN(C(=O)N(C)C)CC2)c1"
measured = -15.7

[[record]]
compound = "CCc1cc(=O)oc2cc(C)c(CN3CCCC3)c(O)c12"
measured = 27.1

[[record]]
compound = "CC1(C)Oc2ccc3ccc(=O)oc3c2C(N2CCCCC2)C1O (stereo unspecified)"
measured = -30.2

[[record]]
compound = "CN(C)CCOC(=O)Cc1ccc(Cl)cc1"
measured = -90.8


Turning to the following compound.
Give recorded inhibition. CN(C)CCN1C(=O)C(O)=C(C(=O)c2cc3ccccc3o2)C1c1ccc(N(C)C)cc1 (stereo unspecified)
23.3

====

Can you tell me cell count for the items I'm about to list?
Test: inhibitors of TNFa-induced NFkB p65 translocation, primary screen, imaging, HUVEC, MLSMR starter and 10KST1 sets (AID 438);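 also: compound added about 3h40 before a 20 min TNFalpha stimulation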
Settings: HUVEC TNFa-induced p65 nuclear translocation; measured here: nuclei count (cytotoxicity indicator), at 2.08 µM
One number for each entry.

Reference set, count: 3
[[record]]
compound = "COc1ccc(-c2nn3c(-c4cccc(C)c4)nnc3s2)cc1OC"
attribute_measured = "cell count"
measured = 525

[[record]]
compound = "CCOC(=O)C(C)n1cnc2c(nnn2Cc2ccc(C)cc2)c1=O (configuration not stated)"
attribute_measured = "cell count"
measured = 618

[[record]]
compound = "CCn1c(=O)c(C(=O)NCCc2ccccc2)c(O)c2ccccc21"
attribute_measured = "cell count"
measured = 724


For the 8 compounds below, give their cell count values.
1. Cc1nnc(SCC(=O)NCCN2C(=O)CSC2=O)s1
2. COc1ccc(C(O)C(CN2CCOCC2)c2ccccc2)cc1F (configuration not stated)
3. O=C(CSc1ncnc2c1cnn2Cc1ccccc1)Nc1ccc2c(c1)OCCO2
4. N#CCOc1nc(N2CCOCC2)nc(N2CCOCC2)n1
5. O=C(OCCN1CCOCC1)c1ccc2c(c1)OCCO2
6. CCN(CC)CCN1C(=O)C(O)=C(C(=O)c2cc3ccccc3o2)C1c1cccnc1 (configuration not stated)
7. C=CCOC(=O)C1=C(C)OC(N)=C(C#N)C1c1ccc2c(c1)OCO2 (configuration not stated)
8. CCc1ccc(N2CC(C(=O)OCC(=O)NC3CCS(=O)(=O)C3)CC2=O)cc1 (configuration not stated)

[413, 337, 308, 552, 644, 423, 229, 260]

Return the recorded cell count value; entry: CCc1nc(NCCN2CCOCC2)c(C#N)c2c1CCCC2
358

Data provenance: PubChem BioAssay
